# Tested on: A2780
# EXPERIMENT: Cytotoxic potency required to inhibit A2780 cell growth by 50% after cell drug contact for 96 hrs
# Type: functional, cell-based
# COND: Homo sapiens, A2780, 96 h
Kindly supply the reported IC50 values for the records listed here.

Fill in: IC50 of `CN(C)CCNC(=O)c1ccc(NCCNCCO)c2c(O)c3ccccc3nc12` is ___ 17 nM

Fill in: IC50 of c1ccc2nc3ccccc3cc2c1 [ACRIDINE] is ___ > 100000 nM

Fill in: IC50 of O=C1c2c(O)ccc(O)c2C(=O)c2c(NCCNCCO)ccc(NCCNCCO)c21 [MITOXANTRONE] is ___ 0.55 nM

Fill in: IC50 of `CN(C)CCNC(=O)c1ccc(N(C)CCN(C)C)c2c(O)c3ccccc3nc12` is ___ 410 nM

Fill in: IC50 of `Nc1ccc2c(O)c3ccc(N)cc3nc2c1` is ___ 37000 nM

Fill in: IC50 of `COc1ccc2nc3c(C(=O)NCCN(C)C)ccc(NCCN(C)C)c3c(O)c2c1` is ___ 57 nM

###

# System: Calf thymus DNA
# EXPERIMENT: Inhibitory concentration against ethidium:calf thymus DNA (1.26:1) binding at pH 5
# Type: nucleic-acid assay
# COND: Bos taurus
READOUT: C50 (µM)
State just the number; it will be interpreted in µM.

Fill in: C50 of `COc1ccc2nc3c(C(=O)NCCN(C)C)ccc(NCCN(C)C)c3c(O)c2c1` is ___ 3.1

Fill in: C50 of O=C1c2c(O)ccc(O)c2C(=O)c2c(NCCNCCO)ccc(NCCNCCO)c21 [MITOXANTRONE] is ___ 0.021

Fill in: C50 of `Nc1ccc2c(O)c3ccc(N)cc3nc2c1` is ___ 660

Fill in: C50 of `CN(C)CCCNC(=O)c1ccc(NCCCN(C)C)c2c(O)c3ccccc3nc12` is ___ 3.2

Fill in: C50 of `CN(C)CCNC(=O)c1ccc(NCCN(C)C)c2c(=O)c3ccccc3[nH]c12` is ___ 1.1

Fill in: C50 of `CN(C)CCNC(=O)c1ccc(NCCNCCO)c2c(O)c3ccccc3nc12` is ___ 2

Fill in: C50 of `O=C(NCCNCCO)c1ccc(NCCNCCO)c2c(O)c3ccccc3nc12` is ___ 1.7

Fill in: C50 of `COc1cc(NS(C)(=O)=O)ccc1Nc1c2ccccc2nc2ccccc12` is ___ 8.9

Fill in: C50 of `O=C(NCCN1CCCCC1)c1ccc(NCCN2CCCCC2)c2c(O)c3ccccc3nc12` is ___ 0.83

Fill in: C50 of `CN(C)CCNC(=O)c1ccc(NCCN(C)C)c2c(O)c3cc(O)ccc3nc12` is ___ 2.2

###

# Test system: A2780
# EXPERIMENT: Cytotoxic potency required to inhibit A2780 cell growth by 50% after cell drug contact for 96 hrs
# Assay type: functional, cell-based
# COND: Homo sapiens, A2780, 96 h
Kindly supply the reported pIC50 values for the records listed here.
Please keep in mind that pIC50 is minus log10 of the molar concentration; only the number is needed.

Fill in: pIC50 of `O=C(NCCN1CCCCC1)c1ccc(NCCN2CCCCC2)c2c(O)c3ccccc3nc12` is ___ 7.62

Fill in: pIC50 of `CN(C)CCNC(=O)c1ccc(NCCN(C)C)c2c(O)c3cc([N+](=O)[O-])ccc3nc12` is ___ 7.38

Fill in: pIC50 of `O=C(NCCN1CCOCC1)c1ccc(NCCN2CCOCC2)c2c(O)c3ccccc3nc12` is ___ 5.82

Fill in: pIC50 of `CN(C)CCNC(=O)c1ccc(NCCN(C)C)c2c(=O)c3ccccc3[nH]c12` is ___ 7.82

###

# System: A2780
# EXPERIMENT: Cytotoxic potency required to inhibit A2780 cell growth by 50% after cell drug contact for 96 hrs
# Assay type: functional, cell-based
# COND: Homo sapiens, A2780, 96 h
READOUT: pIC50
Please keep in mind that pIC50 is minus log10 of the molar concentration; only the number is needed.

Fill in: pIC50 of `CN(C)CCCNC(=O)c1ccc(NCCCN(C)C)c2c(O)c3ccccc3nc12` is ___ 6.96

Fill in: pIC50 of `O=C(NCCNCCO)c1ccc(NCCNCCO)c2c(O)c3ccccc3nc12` is ___ 5.32

Fill in: pIC50 of `CN(C)CCNC(=O)c1ccc(NCCN(C)C)c2c(O)c3cc(O)ccc3nc12` is ___ 7.29

Fill in: pIC50 of `CCN(CC)CCNC(=O)c1ccc(NCCN(CC)CC)c2c(O)c3ccccc3nc12` is ___ 6.12

###

# System: SK-OV-3
# EXPERIMENT: Cytotoxic potency required to inhibit SKOV-3 cell growth 50%
# Assay type: functional, cell-based
# COND: Homo sapiens
pIC50: −log10 of the molar value.
Mark 0.0 for pIC50 values under 6, and 1.0 for everything at or above.

Is pIC50 for `O=C(NCCN1CCOCC1)c1ccc(NCCN2CCOCC2)c2c(O)c3ccccc3nc12` at or above 6? 0.0

Is pIC50 for `O=C(NCCNCCO)c1ccc(NCCNCCO)c2c(O)c3ccccc3nc12` at or above 6? 0.0

Is pIC50 for `CN(C)CCNC(=O)c1ccc(NCCN(C)C)c2c(O)c3cc(O)ccc3nc12` at or above 6? 1.0

Is pIC50 for `O=C(NCCN1CCCCC1)c1ccc(NCCN2CCCCC2)c2c(O)c3ccccc3nc12` at or above 6? 1.0

Is pIC50 for `CCN(CC)CCNC(=O)c1ccc(NCCN(CC)CC)c2c(O)c3ccccc3nc12` at or above 6? 0.0

Is pIC50 for `COc1ccc2nc3c(C(=O)NCCN(C)C)ccc(NCCN(C)C)c3c(O)c2c1` at or above 6? 1.0

Is pIC50 for `CN(C)CCCNC(=O)c1ccc(NCCCN(C)C)c2c(O)c3ccccc3nc12` at or above 6? 1.0

Is pIC50 for `CN(C)CCNC(=O)c1ccc(NCCN(C)C)c2c(=O)c3ccccc3[nH]c12` at or above 6? 1.0

Is pIC50 for O=c1c2ccccc2[nH]c2ccccc12 [ACRIDONE] at or above 6? 0.0

###

# Tested on: L1210
# EXPERIMENT: Cytotoxic potency required to inhibit L1210 cell growth by 50% after cell drug contact for 48 hrs
# Assay type: functional, cell-based
# COND: Mus musculus, L1210, 48 h
Kindly supply the reported IC50 values for the records listed here.
State just the number; it will be interpreted in nM.

Fill in: IC50 of `CN(C)CCNC(=O)c1ccc(N(C)CCN(C)C)c2c(O)c3ccccc3nc12` is ___ 1650

Fill in: IC50 of `O=C1c2c(O)ccc(O)c2C(=O)c2c(NCCNCCO)ccc(NCCNCCO)c21` is ___ 0.4

Fill in: IC50 of `O=C(NCCN1CCCCC1)c1ccc(NCCN2CCCCC2)c2c(O)c3ccccc3nc12` is ___ 1200

###

# Test system: Nucleic Acid
# EXPERIMENT: Concentration required to give 50% fluorescence quenching of bound ethidium for [ethidium]: [(poly dG-dC)]2 DNA in ratio of 0.1:1 at pH 5
# Type: nucleic-acid assay
READOUT: Q (µM)
State just the number; it will be interpreted in µM.

Fill in: Q of `CN(C)CCCNC(=O)c1ccc(NCCCN(C)C)c2c(O)c3ccccc3nc12` is ___ 6.6

Fill in: Q of `CCN(CC)CCNC(=O)c1ccc(NCCN(CC)CC)c2c(O)c3ccccc3nc12` is ___ 36

Fill in: Q of `O=C(NCCN1CCCCC1)c1ccc(NCCN2CCCCC2)c2c(O)c3ccccc3nc12` is ___ 5.6

Fill in: Q of `O=c1c2ccccc2[nH]c2ccccc12` is ___ 340

Fill in: Q of `c1ccc2nc3ccccc3cc2c1` is ___ 22

Fill in: Q of `CN(C)CCNC(=O)c1ccc(NCCN(C)C)c2c(O)c3cc([N+](=O)[O-])ccc3nc12` is ___ 2.4

Fill in: Q of `O=C(NCCNCCO)c1ccc(NCCNCCO)c2c(O)c3ccccc3nc12` is ___ 4.1

Fill in: Q of `Cn1cc(NC(=O)c2cc(NC(=O)c3cc(NC=O)cn3C)cn2C)cc1C(=O)NCCC(=N)N` is ___ 130

Fill in: Q of `CN(C)CCNC(=O)c1ccc(NCCN(C)C)c2c(=O)c3ccccc3[nH]c12` is ___ 3.5

Fill in: Q of `COc1ccc2nc3c(C(=O)NCCN(C)C)ccc(NCCN(C)C)c3c(O)c2c1` is ___ 6.5

Fill in: Q of `N=C(N)c1ccc(/N=N/Nc2ccc(C(=N)N)cc2)cc1` is ___ 19

Fill in: Q of `CN(C)CCNC(=O)c1ccc(NCCNCCO)c2c(O)c3ccccc3nc12` is ___ 4.7

Fill in: Q of `O=C(NCCN1CCOCC1)c1ccc(NCCN2CCOCC2)c2c(O)c3ccccc3nc12` is ___ 6

Fill in: Q of `O=C1c2c(O)ccc(O)c2C(=O)c2c(NCCNCCO)ccc(NCCNCCO)c21` is ___ 0.37

Fill in: Q of `Nc1ccc2c(O)c3ccc(N)cc3nc2c1` is ___ 280

Fill in: Q of `CN(C)CCNC(=O)c1ccc(NCCN(C)C)c2c(O)c3cc(O)ccc3nc12` is ___ 5.4

Fill in: Q of `Nc1ccc2cc3ccc(N)cc3nc2c1` is ___ 14

Fill in: Q of `COc1cc(NS(C)(=O)=O)ccc1Nc1c2ccccc2nc2ccccc12` is ___ 4.5

Fill in: Q of `CN(C)CCNC(=O)c1ccc(N(C)CCN(C)C)c2c(O)c3ccccc3nc12` is ___ 15
